B1: CAMK2D (parent)
chain: LLKHPNIVRLHDSISEEGFHYLVF

- Variants of: B1
- experimentSummary: protein stability index of a GFP-peptide fusion (GPS, HEK-293T) (PSI 1-6); higher = more stable;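 note: lentivirally expressed fusions sorted by FACS into six bins by GFP to DsRed ratio, PSI derived from sequencing read proportions per bin multiplied by bin number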
- runConditions: c terminus: a fixed tail appended
readoutKind: protein stability index
One number for each entry.

sequence: LLKHPNLVRLHDSISEEGFHYLVF [I7L]
measurement: 2.98
--
sequence: LLKHPNIVRLHDSWSEEGFHYLVF [I14W]
measurement: 1.4
--
sequence: LLKHPNIVRLHDSESEEGFHYLVF [I14E]
measurement: 2.8

Working through the 8 variants below one at a time, give protein stability index for each.
1. LLKHPNIVRLHDPISEEGFHYLVF [S13P]
2. LLKHPNIVRLHDSISEEGFHYLVC [F24C]
3. LLKHPNIVRLHDSDSEEGFHYLVF [I14D]
4. LLKHPNIVRLYDSISEEGFHYLVF [H11Y]
5. LLKHPNIQRLHDSISEEGFHYLVF [V8Q]
6. LLDHPNIVRLHDSISEEGFHYLVF [K3D]
7. LLKHPHIVRLHDSISEEGFHYLVF [N6H]
8. LLFHPNIVRLHDSISEEGFHYLVF [K3F]

[2.75, 1.84, 1.64, 2.88, 1.94, 2.74, 2.18, 2.85]

# batch: return protein stability index for each of the 3 variants below
1. LLKHPNIVRLHDSISEEGFHYLVH [F24H]
2. LLKHPNIVREHDSISEEGFHYLVF [L10E]
3. LLKHPNIVRLHDSISEEGFIYLVF [H20I]

2.39
2.5
3.5

For every record below, what is its protein stability index?
1. LLKHPNIVRLHDSISEEGFHYLRF [V23R]
2. LLKHPNIVRLHDSISEEGFHTLVF [Y21T]
3. LLKHPNIVRLHDSISEEGFRYLVF [H20R]
4. LLKHPNIVRHHDSISEEGFHYLVF [L10H]
5. LLKHPNIVRLHDSISEEGFEYLVF [H20E]
6. LLKLPNIVRLHDSISEEGFHYLVF [H4L]

1: 3.22; 2: 2.25; 3: 2.08; 4: 2.14; 5: 3.1; 6: 2.79

# batch: return protein stability index for each of the 2 variants below
1. LLKHPNIVRLHDSISEEGFHYLFF [V23F]
2. LLKHPNIVRFHDSISEEGFHYLVF [L10F]

1.91
3.99
